Every entry's value here was drawn from paper PMC9773939.

# PROTOCOL DETAILS: Cytotoxicity on primary peritoneal macrophages
# Format: cell-based, mouse
# RECORDED CONDITIONS: mouse, primary peritoneal macrophages, peritoneal macrophage, CC50, 48 h, MTT
MEASURED PARAMETER: CC50 at 48 h (µM)
Response body: numeric value in µM, unit text excluded.

Problem: Report CC50 at 48 h, nothing else, for this molecule: `Cc1ccc(-c2nc3ccccc3/c(=N/N)[nH]2)cc1`
Result: 84.8

Problem: Answer with reported CC50 at 48 h of CCCCCCCCCCCCCCCCOP(=O)([O-])OCC[N+](C)(C)C [miltefosine, reference compound]
Result: 67.8

Let's switch to this molecule now.
Problem: Give CC50 at 48 h for `NNc1nc(-c2ccc(Cl)cc2)nc2ccccc12`
Result: 89.9

----------
# PROTOCOL DETAILS: Cytotoxicity on J774.1A macrophages
# Type: cell-based
# RECORDED CONDITIONS: mouse, J774.1A macrophages, J774.1A macrophage, CC50, 48 h, MTT
MEASURED PARAMETER: CC50 at 48 h (µM)
State the answer as a number, implicitly in µM.

Problem: Supply recorded CC50 at 48 h for NNc1nc(-c2ccc(Cl)cc2)nc2ccccc12 [3c] here.
Result: 105

Problem: Respond only with CC50 at 48 h recorded for CCCCCCCCCCCCCCCCOP(=O)([O-])OCC[N+](C)(C)C [miltefosine, reference compound]
Result: 72.3

Attention now shifts to the item below.
Problem: Please look at this compound and report its CC50 at 48 h: Cc1ccc(-c2nc3ccccc3/c(=N/N)[nH]2)cc1 [3e]
Result: 115

----------
# System: peritoneal macrophages
# PROTOCOL DETAILS: Cytotoxicity on primary peritoneal macrophages
# Assay type: cell-based, mouse
# RECORDED CONDITIONS: read-out: peritoneal macrophage, CC50; 48 h, MTT
Below, each of the compounds is paired with its reported CC50 value.
Numeric answer plus unit only.

Problem: Check peritoneal macrophages data and give CC50 for CNC[C@H](O)[C@@H](O)[C@H](O)[C@H](O)CO.[O]=[Sb](=[O])[OH] [glucantime, reference compound] .
Result: 138 µM

Problem: Recall the reported CC50 of NNc1nc(-c2ccc(Br)cc2)nc2ccccc12 [3d] when tested on peritoneal macrophages.
Result: 78 µM

More entries:
Problem: Specify CC50 for NNc1nc(-c2ccccc2)nc2ccccc12 [3a] , system peritoneal macrophages.
Result: 61 µM
